Recorded measurements of TGI, one per entry
- Tested on: SF-539 CNS
- experiment notes: NCI tumour cell line growth inhibition, 48 h
attribute measured: TGI

compound: C[C@H]1COC2(c3ccccc3)CCC(=O)N12 (stereo not given in full)
result: > 100 µM
--
compound: Cc1ccc2[nH]c(C(=O)NN3C(=O)CSC34CCCC(C)C4)c(-c3ccccc3)c2c1 (stereo not given)
result: 39.4 µM
--
compound: CN(C)CCOc1nc2c3cccnc3cc(-c3cccc(Cl)c3)c2c2ncccc12
result: 3.08 µM
--
compound: CS(=O)c1ccc(-c2nc(-c3ccc(F)cc3)c(-c3ccncc3)[nH]2)cc1 (stereo not given)
result: > 100 µM
--
compound: COc1cccc2c1cc([N+](=O)[O-])c1c(C(=O)O)cc3c(c12)OCO3
result: > 75.8 µM

---

- Tested on: SK-OV-3 ovarian
- experiment notes: NCI tumour cell line growth inhibition, 48 h
Recorded measurements of GI50, one per entry

compound: CCCCCCCCCCCCOC1C(C(COC2OC(C(O)CN3CCCCC3)C3OC(C)(C)OC23)NC(=O)Nc2ccccc2)OC2OC(C)(C)OC21 (stereo not given)
GI50: 20.4 µM

compound: Cc1ccccc1-n1c(/C=C\c2ccccn2)nc2ccccc2c1=O
GI50: 35.3 µM

compound: NC(N)=N/N=C/c1cccc(Cl)c1Cl
GI50: 7.06 µM

compound: C#CCOc1ccc2ncnc(Nc3ccc(NC(=O)CCl)cc3)c2c1
GI50: 12.5 µM

compound: CCCCN(CCCC)CC(C)(C)C(O)c1ccc(OC)c2ccccc12 (stereo not given)
GI50: 5.29 µM

---

Recorded measurements of TGI, one per entry
- System: CCRF-CEM leukemia
- experiment notes: NCI tumour cell line growth inhibition, 48 h
attribute measured: TGI (µM)

compound: c1ccc2cc(OCC3CO3)c(OCC3CO3)cc2c1 (stereo unspecified)
scale unit: µM
limit sign: =
recorded number: 1.48
--
compound: COc1ccc2[nH]c(-c3cccc(N(C)C)c3)cc(=O)c2c1
scale unit: µM
limit sign: =
recorded number: 0.907
--
compound: COc1ccc(-c2c3c(n(C4OC(CO)C(O)C(O)C4O)c(=S)c2C#N)CC(C)(C)CC3=O)cc1 (stereo unspecified)
scale unit: µM
limit sign: >
recorded number: 100
--
compound: CCCC(=O)N/S(=N/S(=O)(=O)c1ccc(Cl)cc1)C(Cl)(Cl)Cl (stereo unspecified)
scale unit: µM
limit sign: >
recorded number: 100
--
compound: CCCCOP(=O)(OCCCC)/C(C#N)=C/c1ccco1
scale unit: µM
limit sign: >
recorded number: 100
--
compound: Cn1cnc2c(OCC3CCCCC3)nc(N)nc21
scale unit: µM
limit sign: >
recorded number: 100
--
compound: CN(/N=C/c1ccnc2ccccc12)c1ccc([N+](=O)[O-])cc1[N+](=O)[O-]
scale unit: µM
limit sign: >
recorded number: 100
--
compound: C=C1CC2(OC1=O)c1ccccc1C=Cc1ccccc12
scale unit: µM
limit sign: =
recorded number: 6.58
--
compound: COc1cc(-c2nn(C(=O)NS(=O)(=O)c3ccc(C)cc3)cc2-c2ccncc2)ccc1Cl
scale unit: µM
limit sign: >
recorded number: 100
--
compound: BrC(Br)(Br)c1cnc2ccccc2n1
scale unit: µM
limit sign: =
recorded number: 2.42
--
compound: CC1(C)CCCCCCCCCC(C)(CCCO)C1=O (stereo unspecified)
scale unit: µM
limit sign: =
recorded number: 92.4
